These measurements were taken from patent US20220064329A1.

Known pKd of a selection of binders
# TARGET_ENTITY: T1, recombinant human activated Factor VII (FVIIa) (human, UniProt P08709 61-212; P08709 213-466, ten glutamate residues of the Gla domain may be gamma-carboxylated)
# T1 construct: chains tethered by a disulfide bond; also called Factor VIIa; rFVIIa
# T1 sequence 1: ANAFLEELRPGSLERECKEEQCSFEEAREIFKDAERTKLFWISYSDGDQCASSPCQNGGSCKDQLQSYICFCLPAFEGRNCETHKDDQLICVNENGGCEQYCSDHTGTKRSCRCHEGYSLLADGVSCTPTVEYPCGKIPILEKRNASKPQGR
# T1 sequence 2: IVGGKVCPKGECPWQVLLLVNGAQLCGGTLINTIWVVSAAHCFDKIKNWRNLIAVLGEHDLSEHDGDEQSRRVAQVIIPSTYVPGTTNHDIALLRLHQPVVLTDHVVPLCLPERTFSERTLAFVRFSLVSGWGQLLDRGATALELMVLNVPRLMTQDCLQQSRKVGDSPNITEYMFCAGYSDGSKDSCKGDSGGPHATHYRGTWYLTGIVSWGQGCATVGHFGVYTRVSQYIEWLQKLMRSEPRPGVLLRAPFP
# ASSAY_NAME: BLI (Fortebio)
Lab note — pKd values are minus log10 of concentrations in M.

A selection of reference data follows.
VH SEQ ID NO 554 / VL SEQ ID NO 334 (antibody, IgG4, V domains shown, humanized 11F2; IgG4 S228P/kappa) VH: QVQLQESGPGLVKPSDTLSLTCAVSGYSISSDSAWSWIRQFPGKGLEWIGYIQYSGSTNYNPSLKSRVTMSVDTSKNQFSLKLSSVTALDTAVYYCARSVNYYGNSFAVGPWGQGTLVTVSS VL: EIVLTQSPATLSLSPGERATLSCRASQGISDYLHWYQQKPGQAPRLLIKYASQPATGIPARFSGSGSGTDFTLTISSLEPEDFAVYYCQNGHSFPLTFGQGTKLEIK :: 7.74
VH SEQ ID NO 626 / VL SEQ ID NO 406 (antibody, IgG4, V domains shown, humanized 11F2; IgG4 S228P/kappa) VH: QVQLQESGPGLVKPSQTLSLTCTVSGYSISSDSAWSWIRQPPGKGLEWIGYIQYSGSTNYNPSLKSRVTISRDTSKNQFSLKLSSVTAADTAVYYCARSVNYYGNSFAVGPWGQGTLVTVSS VL: EIVLTQSPATLSLSPGERATLSCRASQGVSDYLAWYQQKPGQAPRLLIKYASQPATGIPARFSGSGSGTDFTLTISSLEPEDFAVYYCQNGHSFPLTFGAGTKLEIK :: 7.06

Field: next binder
For record VH SEQ ID NO 562 / VL SEQ ID NO 494 (antibody, IgG4, V domains shown, humanized 11F2; IgG4 S228P/kappa) VH: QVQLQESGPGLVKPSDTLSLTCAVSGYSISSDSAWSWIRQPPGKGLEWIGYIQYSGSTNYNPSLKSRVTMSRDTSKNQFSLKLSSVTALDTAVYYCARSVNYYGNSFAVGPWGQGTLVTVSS VL: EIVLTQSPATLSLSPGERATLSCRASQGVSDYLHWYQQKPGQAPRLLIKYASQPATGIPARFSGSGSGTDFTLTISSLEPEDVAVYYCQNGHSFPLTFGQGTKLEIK the listed pKd is 8.80
